Biological target: angiotensin-converting enzyme 2 (ACE2) (Homo sapiens, UniProt Q9BYF1)
Sequence (Q9BYF1 18-805): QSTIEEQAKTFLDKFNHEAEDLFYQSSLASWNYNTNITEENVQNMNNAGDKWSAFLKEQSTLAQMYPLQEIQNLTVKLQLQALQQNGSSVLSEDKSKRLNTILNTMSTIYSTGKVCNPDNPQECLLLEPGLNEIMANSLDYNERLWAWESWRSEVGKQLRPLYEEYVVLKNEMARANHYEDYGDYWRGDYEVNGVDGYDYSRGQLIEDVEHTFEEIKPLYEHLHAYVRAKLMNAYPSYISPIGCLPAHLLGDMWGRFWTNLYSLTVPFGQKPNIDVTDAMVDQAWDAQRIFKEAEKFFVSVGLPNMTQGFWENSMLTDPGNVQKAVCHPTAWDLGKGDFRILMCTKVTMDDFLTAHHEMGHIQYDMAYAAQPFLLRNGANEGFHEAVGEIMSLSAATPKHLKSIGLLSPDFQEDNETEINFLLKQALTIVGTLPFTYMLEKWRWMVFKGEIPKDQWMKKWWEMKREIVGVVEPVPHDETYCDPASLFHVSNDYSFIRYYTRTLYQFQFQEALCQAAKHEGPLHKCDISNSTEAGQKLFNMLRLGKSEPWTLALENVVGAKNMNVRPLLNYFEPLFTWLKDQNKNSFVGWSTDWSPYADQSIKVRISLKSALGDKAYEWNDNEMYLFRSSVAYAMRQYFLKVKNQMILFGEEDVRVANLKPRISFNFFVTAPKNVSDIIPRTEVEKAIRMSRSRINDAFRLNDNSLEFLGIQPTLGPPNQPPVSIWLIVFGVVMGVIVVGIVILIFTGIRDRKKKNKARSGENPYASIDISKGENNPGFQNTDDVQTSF
Test: SPR
Type: binding
VALUE KIND: Kd (nM)

> print(dat)
                                   molecule  test.value
1  CN1CCCC(n2nc(Cc3ccc(Cl)cc3)c3ccccc3c2=O)CC1 (stereo not shown) [azelastine]         258
